Measured values drawn from PubChem BioAssay (NCI) for this set.

test system: U251 CNS; assay: NCI-60 one-dose screen, 48 h (100 = growth as untreated, 0 = no growth, -100 = all killed); details: 10 µM unless noted
Compounds without any hit were thinned out: in the full panel of roughly 83,000, 20% have a hit. The source made the active and inactive calls. Rule for the calls: active = growth percent below 10; inactive = the rest.
value kind: growth

>>> result("COc1cc(Br)c(OC)cc1Br")
"98.9% (inactive)"
>>> result("CC/C=C\\C/C=C\\C[C@H](O)C/C=C1/C(=O)C=C[C@H]1C/C=C\\CCC(=O)OC")
"15% [8.25 µM] (inactive)"
>>> result("O=C(Nc1ccccc1)OCC1OCOC(COC(=O)Nc2ccccc2)C1OC(=O)Nc1ccccc1 (stereo unspecified)")
"74.9% (inactive)"
>>> result("Cc1ccc(Cn2c(-c3nonc3N)nc3ccccc32)cc1")
"77.5% (inactive)"
>>> result("CCN(C(=O)c1cc2ncccc2[nH]1)[C@H]1CCC[C@@H](NCc2cccc(F)c2)C1")
"107% (inactive)"
>>> result("c1ccn2nnnc2c1")
"92.7% (inactive)"
>>> result("O=C1CCC/C=C\\C[C@H]2C=CC(=O)/C2=C/C[C@H](C/C=C\\CC(F)(F)F)O1")
"-65.5% (active)"
>>> result("Cc1cc(C)c(NC(=O)c2sc3nc4c(cc3c2N)CN(Cc2ccccc2)CC4)c(C)c1")
"32.9% (inactive)"
>>> result("CCN1C(=O)/C(=c2\\sc3n(c2=O)C2C(NN=3)N(CC)C(=S)N2CC)c2ccccc21 (stereo unspecified)")
"97.3% (inactive)"
>>> result("CCCC1OC(c2ccc(C(C)C)cc2)OCC1CC (stereo unspecified)")
"95.7% (inactive)"
>>> result("CC(C)C[C@H](NC(=O)[C@H](Cc1ccccc1)n1ccc(N2CCCCC2)cc1=O)B(O)O")
"18.1% (inactive)"
>>> result("COc1ccc(/C=C2\\Oc3cc(OCCN4CCCC4)ccc3C2=O)c(OC)c1")
"76.5% (inactive)"
>>> result("O=C(Nc1ccc(I)cc1)c1cc([N+](=O)[O-])ccc1O")
"31.1% (inactive)"
>>> result("COc1ccc2c(c1)NC(=O)CN2c1nc(C)nc2ccccc12")
"16.2% (inactive)"
>>> result("COC(=O)[C@H]1[C@H](OC)[C@@H](OC(=O)/C=C/c2ccncc2)CC2CN3CCc4c([nH]c5cc(OC)ccc45)[C@@H]3C[C@@H]21 (stereo partly specified)")
"67.1% (inactive)"
>>> result("CCOC(=O)c1cc(/C(=N\\O)c2cc(OC)c(OC)c(OC)c2)n2c(C)cccc12")
"26.2% (inactive)"
>>> result("CCCCOc1nc2c(C)cccc2cc1C1CNC(=O)c2ccccc2N1 (stereo unspecified)")
"63.7% (inactive)"
>>> result("O=C1Nc2cc(Cl)ccc2/C1=C/c1ccc(N2CCOCC2)s1")
"96.7% (inactive)"
>>> result("Cc1ccc(Nc2ncnc3c2sc2ncccc23)cc1")
"101% (inactive)"
>>> result("CCNC(=O)C1CCCN1C(=O)C(CCCN=C(N)N)NC(=O)C(CC(C)C)NC(=O)C(CC(C)C)NC(=O)C(Cc1ccc(O)cc1)NC(=O)C(CO)NC(=O)C(Cc1c[nH]c2ccccc12)NC(=O)C(Cc1cnc[nH]1)NC(=O)C1CCC(=O)N1 (stereo unspecified)")
"94.8% (inactive)"
>>> result("O=C1NCC(c2cc3ccccc3[nH]c2=O)Nc2ccccc21 (stereo unspecified)")
"102% (inactive)"
>>> result("CCC1CCc2nc3sc(C(=O)Nc4ccccc4C)c(N)c3cc2C1 (stereo unspecified)")
"42% (inactive)"
>>> result("CCC(=O)Oc1cc(/C=C/C(=O)O[C@H]2C[C@H]3CN4CCc5c([nH]c6cc(OC)ccc56)[C@@H]4C[C@@H]3[C@@H](C(=O)OC)[C@@H]2OC)ccc1OC")
"61.1% (inactive)"
>>> result("O=C(CN1CCN(c2cc3c(cc2F)c(=O)c(C(=O)O)cn3C2CC2)CC1)Nc1ccc(C(=O)/C=C/c2ccccc2)cc1")
"14.9% (inactive)"
>>> result("Cc1nc(Nc2cccnc2)sc1C(=O)/C=C/c1ccc(F)cc1")
"12.9% (inactive)"
>>> result("NC(=S)NN=C1CCCCC1")
"76.4% (inactive)"
>>> result("O=C(CCC(=O)OC1CCCC1)OC1CCCC1")
"92.2% (inactive)"
>>> result("O=[N+]([O-])c1ccc(S(=O)(=O)N2CCN(c3ccnc4cc(Cl)ccc34)CC2)c([N+](=O)[O-])c1")
"93.9% (inactive)"
>>> result("O=C1CCCCN1CCCCC#Cc1ccccc1C#Cc1ccccn1")
"88.9% (inactive)"
>>> result("CC1=CNNc2c3ncnc-3ncn21")
"102% (inactive)"
>>> result("O=C(OCCCCOC(=O)n1cnc2ccccc21)n1cnc2ccccc21")
"99.5% (inactive)"
>>> result("COc1ccc(C(=O)N2CCN(C(=O)c3cc(OC)c(OC)c(OC)c3)CC2)cc1OCCCCOc1cc2c(cc1OC)C(=O)N1CCC[C@H]1C=N2")
"101% (inactive)"
>>> result("CCCCn1c(=O)c(C2CNC(=O)c3ccccc3N2)cc2ccccc21 (stereo unspecified)")
"98% (inactive)"
>>> result("CC(=O)c1cc(C(=O)c2ccc3c(c2)Sc2ccccc2N3)c2cc(C)ccn12")
"11.3% (inactive)"
>>> result("C/C(=N\\NC(=O)CC#N)c1cc2cc(Cl)ccc2o1")
"89.3% (inactive)"
>>> result("COc1cc(CNC(=O)CSc2nc3ccccc3c(=O)n2Cc2cc(OC)c(OC)c(OC)c2)cc(OC)c1OC")
"98% (inactive)"
>>> result("O=C(c1ccncc1)N1N=C(c2ccc(Cl)cc2)CC1c1c[nH]c2ccccc12 (stereo unspecified)")
"93.4% (inactive)"
>>> result("COc1ccc(/C(=N/O)c2cc(F)c(F)c(OC)c2F)cc1O")
"18.2% (inactive)"
>>> result("CCSc1nnc(NC(=O)Cc2ccc(Cl)cc2)s1")
"98.7% (inactive)"
>>> result("CCC(c1ccc(OC)cc1)C(CC)c1ccc(O)c(CN2CCCC2)c1 (stereo unspecified)")
"7.11% (active)"
>>> result("CCSc1nnc(Nc2ccc(C(C)C)cc2)s1")
"66% (inactive)"
